# measurement_description: Intrinsic clearance in mouse liver microsomes at 0.8 uM by LC-MS/MS analysis
# Format: ADME, microsome
# setup_conditions: read-out: CLH
For each of the molecules below, state its CLint scaled at 0.8 µM.

Example cases with answers are listed next.
{"molecule": "CCCCN1CCC(N(Cc2ccccc2)C(=O)Nc2ccc(Cl)c(Cl)c2)CC1", "CLint scaled at 0.8 µM": "25 to 25.6 mL/min/kg"}
{"molecule": "CCCC(C)N1CCC(N(Cc2ccccc2)C(=O)Nc2cccc(C(F)(F)F)c2)CC1 (configuration not stated)", "CLint scaled at 0.8 µM": "165 to 170 mL/min/kg"}
{"molecule": "CCCC(C)N1CCC(N(Cc2ccccc2)C(=O)Nc2ccc3ccccc3c2)CC1 (configuration not stated)", "CLint scaled at 0.8 µM": "≥ 500 mL/min/kg"}
{"molecule": "CCCCN1CCC(N(Cc2ccccc2)C(=O)Nc2cc(F)cc(F)c2)CC1", "CLint scaled at 0.8 µM": "≥ 500 mL/min/kg"}
{"molecule": "CCCCN1CCC(N(Cc2ccccc2)C(=O)Nc2cccc(F)c2)CC1", "CLint scaled at 0.8 µM": "≥ 500 mL/min/kg"}
{"molecule": "CCCC(C)N1CCC(N(Cc2ccccc2)C(=O)Nc2ccc3c(c2)OCO3)CC1 (configuration not stated)", "CLint scaled at 0.8 µM": "≥ 500 mL/min/kg"}

### Prompt Using the record for CCCC(C)N1CCC(N(Cc2ccccc2)C(=O)Nc2cc(F)cc(Cl)c2)CC1 (configuration not stated) , report its CLint scaled at 0.8 µM.
### Response ≥ 500 mL/min/kg

---

Hi there, I'd appreciate the recorded Vd for every entry that follows.
# Test system: Mus musculus
# measurement_description: Volume of distribution in mouse at 0.5 to 1.5 mg/kg, iv administered as single dose
# Type: ADME, organism-based
# setup_conditions: in vivo

Okay, here is my list. What is Vd for each of these?
1. CCCC(C)N1CCC(N(Cc2ccccc2)C(=O)Nc2cccc(C(F)(F)F)c2)CC1 (configuration not stated)
2. CCCCN1CCC(N(Cc2ccccc2)C(=O)Nc2ccc(Cl)c(Cl)c2)CC1

### Response
1. 87.3 to 176 L/kg
2. 87.3 to 176 L/kg

---

# measurement_description: Half life in mouse at 100 mg/kg, po administered as single dose
# Format: ADME, organism-based
# setup_conditions: in vivo
metric: half-life (min)
Numbers only, in min.

### Prompt Data request, read-out half-life, for CCCCN1CCC(N(Cc2ccccc2)C(=O)Nc2ccc(Cl)c(Cl)c2)CC1
### Response 252

---

# measurement_description: Half life in mouse at 1 mg/kg, iv administered as single dose
# Assay type: ADME, organism-based
# setup_conditions: in vivo
metric: half-life (h)
Answers are plain numbers, in h.

### Prompt Which measured half-life value corresponds to CCCCN1CCC(N(Cc2ccccc2)C(=O)Nc2ccc(Cl)c(Cl)c2)CC1 ?
### Response 3.6

---

# measurement_description: Plasma concentration in mouse at 200 mg/kg, po administered as singe dose measured after 1 hr
# Assay type: ADME, organism-based
metric: concentration at 1 h
// return the numeric value with its unit appended

### Prompt What value of measured concentration at 1 h is listed for CCCCN1CCC(N(Cc2ccccc2)C(=O)Nc2ccc(Cl)c(Cl)c2)CC1 ?
### Response 3000 nM
